# Test system: MS2 coat protein
# test details: apparent KD of MS2 coat protein; designed switch direction (-1 OFF switch, 1 ON switch): 1; higher = weaker reporter binding
# assay conditions: Eterna round: R95; input ligand: none
1 (yes) means recorded apparent KD of MS2 coat protein is 100 nM or above; 0 (no) means it is below 100 nM.

1) GUUAUACAUGAGGAUCACCCAUGUCAAUGUAGUCGAGGAUAUGGGCAGCUAUGAGGCGUACUAGAAGGCGAGGAGU [JL-ss1-3.15 ViennaUCT mod] (puzzle: Same State 1)	1 (yes)
2) GUAUAACAUGAGGAUCACCCAUGUCAUCUAAGUCGAGGAUAUGGGCAAAUAUAAUAAGAACCAGAAGGCGAAUAUG [Mat - Same State 1 - Mod of UCT - D34] (puzzle: Same State 1)	1 (yes)
3) AUAAUACAUGAGGAUCACCCAUGUCAACAAAGUCGAGGAUAUGGGCAAAUAAAAUAAGAACCAGAAGGCGAAUAAU [salish99_ss1_r3_046] (puzzle: Same State 1)	1 (yes)
4) GGUCCAGCCUGAGCUGGACAAAAGCAUGUACAUGAGGAUCACCCAUGUCAUGUAUAAGCUUUUUGCUCGUCUUAAAA [JL mod - D87 - 11] (puzzle: Sensor for hsa-mir-208a)	0 (no)
5) GGCAGGUGCAGGCUUGCUUGCACCUGGAGACAUGAGGAUCACCCAUGUUUGGGACAAGCUUUGCUCCUCGUCUUUUC [JL ViennaUCT Isusreraar mod 7] (puzzle: Sensor for hsa-mir-208a)	1 (yes)
6) AUUUAACAAGCUUUUUGCUCGUCUUAUAAACAUGAGGAUCACCCAUGUAAUAGCGUGAGAGUAAUUAUUUAAAUAAU [JMF 94] (puzzle: Sensor for hsa-mir-208a)	0 (no)
